Where these numbers come from: paper PMC4993649

EC50 values for the molecules below.
Molecular target: ERβ/C369-biotin-SaTb with SRC3 NRID-fluorescein (Homo sapiens, UniProt Q92731)
Sequence (Q9Y6Q9 627-829): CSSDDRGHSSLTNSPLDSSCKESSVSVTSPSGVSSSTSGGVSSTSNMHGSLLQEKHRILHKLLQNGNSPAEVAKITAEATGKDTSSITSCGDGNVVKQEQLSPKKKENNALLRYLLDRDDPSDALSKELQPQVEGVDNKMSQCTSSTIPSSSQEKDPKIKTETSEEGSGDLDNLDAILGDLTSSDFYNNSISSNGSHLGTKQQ
Sequence (Q92731 256-503): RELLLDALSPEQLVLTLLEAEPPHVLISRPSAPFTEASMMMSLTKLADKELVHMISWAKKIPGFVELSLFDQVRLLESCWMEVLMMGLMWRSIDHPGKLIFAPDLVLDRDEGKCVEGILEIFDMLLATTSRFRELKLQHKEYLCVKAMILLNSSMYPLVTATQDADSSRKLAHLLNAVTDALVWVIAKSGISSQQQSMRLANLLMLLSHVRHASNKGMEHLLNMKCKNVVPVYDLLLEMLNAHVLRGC
Experiment: tr-FRET ligand titration into ERβ and SRC3
Conditions: read-out: Ligand coactivator recruitment potency (Ligand titration) EC50; ligand titrated into 1 nM ERβ LBD, 0.25 nM SaTb, 100 nM SRC3-fluorescein; mean ± SD
Use nM as the unit, but write only the number.

Consider the worked cases shown below.
[[record]]
compound = "O/N=C1\\CCc2c(-c3ccc(O)cc3)ccc(O)c21"
targetentity = "ERβ/C369-biotin-SaTb with SRC3 NRID-fluorescein (Homo sapiens, UniProt Q92731)"
reportedmetric = "EC50"
reportedvalue = 14.2

[[record]]
compound = "O/N=C1\\CCc2c(-c3ccc(O)c(F)c3)ccc(O)c21"
targetentity = "ERβ/C369-biotin-SaTb with SRC3 NRID-fluorescein (Homo sapiens, UniProt Q92731)"
reportedmetric = "EC50"
reportedvalue = 19.5


Q: Need EC50 of O/N=C1\CCc2c(-c3ccccc3)ccc(O)c21 , thanks.
A: 393

###

β/α ratio (of RBA values) values for the molecules below.
Target: purified full-length human ERβ (Homo sapiens, UniProt Q92731)
Sequence (Q92731 whole entry): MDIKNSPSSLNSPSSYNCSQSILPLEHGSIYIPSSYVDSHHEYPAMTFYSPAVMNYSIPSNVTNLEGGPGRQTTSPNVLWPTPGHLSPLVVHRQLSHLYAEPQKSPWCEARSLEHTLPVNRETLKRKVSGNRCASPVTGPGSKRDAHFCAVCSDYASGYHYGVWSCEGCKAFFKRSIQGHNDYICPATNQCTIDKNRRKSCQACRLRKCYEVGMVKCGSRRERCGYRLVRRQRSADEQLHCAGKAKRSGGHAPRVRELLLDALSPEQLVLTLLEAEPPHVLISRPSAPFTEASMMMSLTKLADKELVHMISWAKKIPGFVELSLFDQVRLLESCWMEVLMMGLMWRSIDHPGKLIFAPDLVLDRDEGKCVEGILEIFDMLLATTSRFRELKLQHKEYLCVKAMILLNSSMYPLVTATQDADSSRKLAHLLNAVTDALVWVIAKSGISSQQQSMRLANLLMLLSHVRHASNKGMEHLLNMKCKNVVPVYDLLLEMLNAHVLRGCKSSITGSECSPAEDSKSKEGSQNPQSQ
Details: ERβ RBA / ERα RBA
Form rule: numeric answer, no unit written next to it.

[[record]]
molecule = "O/N=C1\\CCc2c(-c3ccc(O)c(F)c3)ccc(O)c21 [1c]"
targetentity = "purified full-length human ERβ (Homo sapiens, UniProt Q92731)"
reportedmetric = "β/α ratio (of RBA values)"
reportedvalue = 33

[[record]]
molecule = "COc1ccc(-c2ccc(O)c3c2CC/C3=N\\O)cc1 [1b]"
targetentity = "purified full-length human ERβ (Homo sapiens, UniProt Q92731)"
reportedmetric = "β/α ratio (of RBA values)"
reportedvalue = 3.0

[[record]]
molecule = "Cc1cc(-c2ccc(O)c3c2CC/C3=N\\O)ccc1O [1e]"
targetentity = "purified full-length human ERβ (Homo sapiens, UniProt Q92731)"
reportedmetric = "β/α ratio (of RBA values)"
reportedvalue = 6.3

[[record]]
molecule = "COc1ccc(-c2ccc(O)c3c2CC/C3=N\\O)cc1Cl [1h]"
targetentity = "purified full-length human ERβ (Homo sapiens, UniProt Q92731)"
reportedmetric = "β/α ratio (of RBA values)"
reportedvalue = 0.50

[[record]]
molecule = "COc1ccc(-c2ccc(O)c3c2CC/C3=N\\O)cc1F [1d]"
targetentity = "purified full-length human ERβ (Homo sapiens, UniProt Q92731)"
reportedmetric = "β/α ratio (of RBA values)"
reportedvalue = 0.8


Q: Return β/α ratio (of RBA values) measured with purified full-length human ERβ (Homo sapiens, UniProt Q92731) given this molecule: O/N=C1\CCc2c(-c3ccc(O)cc3)ccc(O)c21 [1a]
A: 16

Q: Return β/α ratio (of RBA values) measured with purified full-length human ERβ (Homo sapiens, UniProt Q92731) given this molecule: COc1ccc(-c2ccc(O)c3c2CC/C3=N\O)cc1C [1f]
A: 1.0

Q: Return β/α ratio (of RBA values) measured with purified full-length human ERβ (Homo sapiens, UniProt Q92731) given this molecule: O/N=C1\CCc2c(-c3ccccc3)ccc(O)c21 [1i]
A: 89

Q: Return β/α ratio (of RBA values) measured with purified full-length human ERβ (Homo sapiens, UniProt Q92731) given this molecule: O/N=C1\CCc2c(-c3ccc(O)c(Cl)c3)ccc(O)c21 [1g]
A: 8.0
